Assay: Cmax in Sprague-Dawley rat at 75 mg/kg, po
Format: ADME, organism-based
Set-up: dose 75 mg/kg, route oral
Details: in vivo
result-type: Cmax (µg/mL)
Could you give me the number in µg/mL? Just the number is fine.

q: // query Cmax value for entry `COC(=O)N[C@H](C(=O)N1CCC[C@H]1c1ncc(-c2ccc3c(c2)Oc2ccc(-c4cnc([C@@H]5CCCN5C(=O)[C@@H](NC(=O)OC)C(C)C)[nH]4)cc2C3(C)C)[nH]1)C(C)C`
a: 12.4

====

Experiment: Cmax in cynomolgus monkey at 75 mg/kg, po
Format: ADME, organism-based, Macaca fascicularis
Set-up: dose 75 mg/kg, route oral
Conditions: in vivo
result-type: Cmax (µg/mL)
Could you give me the number in µg/mL? Just the number is fine.

q: // query Cmax value for entry `COC(=O)N[C@H](C(=O)N1CCC[C@H]1c1ncc(-c2ccc3c(c2)Oc2ccc(-c4cnc([C@@H]5CCCN5C(=O)[C@@H](NC(=O)OC)C(C)C)[nH]4)cc2C3(C)C)[nH]1)C(C)C`
a: 3.6
